Target: JAK3 enzyme (Homo sapiens, UniProt P52333)
Sequence (P52333 whole entry, species assumed): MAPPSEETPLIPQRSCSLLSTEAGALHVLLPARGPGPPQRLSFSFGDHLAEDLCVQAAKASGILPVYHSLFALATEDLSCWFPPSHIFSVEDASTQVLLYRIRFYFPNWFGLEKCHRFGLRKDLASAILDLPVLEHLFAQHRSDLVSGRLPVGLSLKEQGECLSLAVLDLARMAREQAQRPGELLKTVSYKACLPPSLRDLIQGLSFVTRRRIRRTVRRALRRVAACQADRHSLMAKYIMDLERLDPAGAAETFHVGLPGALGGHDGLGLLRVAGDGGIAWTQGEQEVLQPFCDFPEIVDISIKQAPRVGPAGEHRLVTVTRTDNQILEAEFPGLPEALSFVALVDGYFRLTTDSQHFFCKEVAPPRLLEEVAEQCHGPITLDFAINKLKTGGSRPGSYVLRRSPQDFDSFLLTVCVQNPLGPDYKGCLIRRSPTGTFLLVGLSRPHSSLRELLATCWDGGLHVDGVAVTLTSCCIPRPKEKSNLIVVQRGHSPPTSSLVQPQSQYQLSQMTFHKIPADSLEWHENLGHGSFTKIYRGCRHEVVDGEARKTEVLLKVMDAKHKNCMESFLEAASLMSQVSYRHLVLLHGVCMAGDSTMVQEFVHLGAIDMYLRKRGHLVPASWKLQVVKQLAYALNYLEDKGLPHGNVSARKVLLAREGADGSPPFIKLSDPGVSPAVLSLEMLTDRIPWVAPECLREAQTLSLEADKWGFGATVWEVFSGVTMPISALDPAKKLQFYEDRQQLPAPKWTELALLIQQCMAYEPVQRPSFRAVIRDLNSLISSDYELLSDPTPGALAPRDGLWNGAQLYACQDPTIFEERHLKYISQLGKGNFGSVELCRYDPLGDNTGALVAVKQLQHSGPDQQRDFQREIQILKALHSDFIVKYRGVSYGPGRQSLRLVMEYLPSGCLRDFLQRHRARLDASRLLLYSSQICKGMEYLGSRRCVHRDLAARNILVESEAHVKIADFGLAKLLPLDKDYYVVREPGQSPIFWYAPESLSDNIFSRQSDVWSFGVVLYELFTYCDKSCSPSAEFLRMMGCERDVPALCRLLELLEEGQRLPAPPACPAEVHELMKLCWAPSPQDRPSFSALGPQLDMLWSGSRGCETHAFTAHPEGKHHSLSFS
Test: JAK Caliper Enzyme Assay at 1 mM ATP
Format: biochemical
Quantity Name: log10 IC50 (log10 of the value in nM)
Give log10 of IC50, with IC50 taken in nM.

Can you look up the measured log10 IC50 of C=CC(=O)N1CCC(C)(Nc2cnc3[nH]cc(C(=O)NCCCC(F)(F)F)c3n2)CC1 [Example 333] for me? 1.64

Okay, and C=CC(=O)N1CC[C@H](Nc2cnc3[nH]cc(C(=O)NCC)c3n2)[C@@H](O)C1 (single isomer, unassigned) [Example 32] ? 2.14

Okay, and C=CC(=O)N1C[C@H](Nc2cnc3[nH]cc(C(=O)NCC)c3n2)[C@](C)(C#N)C1 [Example 251] ? 3.12

Okay, and C=CC(=O)N1CCC(Nc2cnc3[nH]cc(C(=O)NCc4scnc4C(F)(F)F)c3n2)CC1 [Example 185] ? 0.78

Okay, and C=CC(=O)N1C[C@@H](Nc2cnc3[nH]cc(C(=O)N[C@H](C)COC)c3n2)CC[C@H]1C (single isomer, unassigned) [Example 70] ? 3.14

Okay, and C=CC(=O)N1CC[C@@H](Oc2cnc3[nH]cc(C(=O)N[C@@H](C)COC)c3n2)C[C@@H]1C (single isomer, unassigned) [Example 73] ? 1.52

Okay, and C=CC(=O)N1CC[C@H](COc2cnc3[nH]cc(C(=O)N[C@@H](C)COC)c3n2)C1 (single isomer, unassigned) [Example 11] ? 2.49

Okay, and C=CC(=O)N1CCC(Nc2cnc3[nH]cc(C(=O)NCC)c3c2)CC1 [Example 352] ? 3.65

Okay, and C=CC(=O)N1CC[C@H](Nc2cnc3[nH]cc(C(=O)NCCC(F)(F)F)c3n2)C1 (single isomer, unassigned) [Example 255] ? 2.93

Cited source for all entries: patent US10703756B2
